These measurements were taken from PubChem BioAssay (NCI).

Provide the recorded TGI for the entries that follow.
Test system: TK-10 renal
Experiment notes: NCI tumour cell line growth inhibition, 48 h

Q: Query TGI on TK-10 renal for "COc1c(/C=C/C=O)cc2c(c1OC)OCO2"
A: > 100 µM

Q: Param readout = TGI; param system = TK-10 renal; param query = Oc1ccc2c3c1OC1c4[nH]ncc4C[C@H]4[C@@H](C2)N(CC2CC2)CC[C@]314 (stereo partly specified) ; response: value
A: > 100 µM

Q: Form field - read-out: TGI; system: TK-10 renal; submitted item: O=C1OC(C2Cc3ccc4c(c3C2=O)CCC4)c2ccccc21 (stereo unspecified)
A: > 100 µM

Q: Checklist item: TGI tested on TK-10 renal, entry "COC(=O)c1ncc2c(=O)[nH]c3ccccc3c2c1C(=O)OC" , value?
A: > 100 µM

Q: What is its TGI for TK-10 renal? Entry: "O=C(NCCCNCCN1C(=O)c2cccc3cc([N+](=O)[O-])cc(c23)C1=O)c1cc(-c2ccccc2)nc2ccccc12"
A: 21.8 µM

Q: Please tell me: TGI of CC(=O)Nc1cccc(N2C(=O)/C(=C\c3cccc(Oc4ccccc4)c3)S(=O)(=O)C2c2ccccc2)c1 (stereo unspecified) , system TK-10 renal?
A: > 100 µM

Q: Short answer please: TGI, TK-10 renal, entry "Cc1ccc(S(=O)(=O)N2CCN(C=S)CC2)cc1"
A: > 100 µM

Q: Please tell me: TGI of "Cc1[nH]c2ccccc2c1CC/C(=N\Nc1ccccc1)c1ccccc1" , system TK-10 renal?
A: > 100 µM

Q: Query for TK-10 renal: what TGI does the record show for COc1cc2c(c(O)c1OC)C(=O)[C@@H]1CCC(=O)N1C2c1ccccc1 (stereo partly specified) ?
A: > 100 µM

Q: State its TGI on TK-10 renal: "COc1ccc(/C=C2\COc3ccc(O)c(O)c3C2=O)c(OC)c1OC"
A: 23.3 µM

Q: Please state recorded TGI (tested on TK-10 renal) of COc1cc(C2OC(N)=C(C#N)C3=C2C(C)CCC3)cc(OC)c1OC (stereo unspecified)
A: > 100 µM
